Biological target: GST-SBP-SLBP (stem-loop binding protein) (Homo sapiens, UniProt Q14493 1-270)
Assay: targeted RNA Bind-n-Seq; RBNS binding buffer: 25 mM Tris pH 7.5, 150 mM KCl, 3 mM MgCl2, 0.1% Tween, 0.5 mg/mL BSA, 1 mM DTT; 27 nM protein, 750 pM RNA pool; temperature not stated; high values mean tight binding
Conditions: protein: recombinant; tags: N-terminal GST and SBP (pGEX6P1-SBP)
reported_metric: binding signal (log2 fold change)
Report as a plain number; the unit log2 fold change is understood.

binder	unit_info	binding signal
consensus (structured_RNA) RNA: GGUCACGUCUCAAUCAACUCCCAAAGGCUCUUUUCAGAGCCACCCAUCAACAGCUCGCAGUCAAG	log2 fold change	3.73
consensus (structured_RNA) RNA: GGUCACGUCUCAAUCAACUCCCAAAGGUUUUUUUGAAAACCACCCAUCAACAGCUCGCAGUCAAG	log2 fold change	2.28
consensus (structured_RNA) RNA: GGUCACGUCUCAAUCAACUCCCAAAGGUCUUUCUAAGGACCACCCAUCAACAGCUCGCAGUCAAG	log2 fold change	1.6
consensus (structured_RNA) RNA: GGUCACGUCUCAAUCAACUCCCAAAGGCUUUUCUAAAAGCCACCCAUCAACAGCUCGCAGUCAAG	log2 fold change	3.29

Returns the measured binding signal for the input binder. Input: consensus (structured_RNA) RNA: GGUCACGUCUCAAUCAACUCCCAAAGGCUCUUUUUAGAGCCACCCAUCAACAGCUCGCAGUCAAG
3.17

FYI, the data here is from paper PMC5892938.
